# tgt: LdDOHH (recombinant L. donovani deoxyhypusine hydroxylase) (Leishmania donovani, UniProt D9IFD5)
# Construct: full length, 326 aa (981 bp ORF, ~36 kDa), pET30a EcoRI-HindIII, 6xHis tag printed as C-terminal (~6 kDa, kept), ~42 kDa, E. coli BL21(DE3), Ni-NTA
# Sequence (D9IFD5 whole entry): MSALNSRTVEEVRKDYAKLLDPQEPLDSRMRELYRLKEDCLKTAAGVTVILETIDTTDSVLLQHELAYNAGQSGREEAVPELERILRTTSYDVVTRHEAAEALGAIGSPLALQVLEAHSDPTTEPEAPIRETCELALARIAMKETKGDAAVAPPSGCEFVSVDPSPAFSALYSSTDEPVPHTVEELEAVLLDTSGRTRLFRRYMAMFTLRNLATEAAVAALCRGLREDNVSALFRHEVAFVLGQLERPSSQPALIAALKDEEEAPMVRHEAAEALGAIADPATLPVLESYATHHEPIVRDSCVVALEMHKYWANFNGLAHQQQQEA
# procedure.text: [3H]hypusine release assay (periodate oxidation), Hill fit
# test.parameters: read-out: concentration that inhibited 50% of activity
endpoint.name: IC50 (µM)
Kindly answer with a numeric value in µM, unit omitted.

1) N[C@@H](Cn1ccc(=O)c(O)c1)C(=O)O
13

# return recorded IC50 for entry `Cc1cc(C2CCCCC2)n(O)c(=O)c1`
13.6
